meta.source: patent US20140348834A1

Target: T1, cynomolgus monkey IL-17A (cynomolgus monkey, UniProt A0A2K5TTB0 24-155)
T1 construct: biotinylated in the ELISA; also called cyno IL-17; Cyno IL-17A
T1 sequence (A0A2K5TTB0 entry or part of it): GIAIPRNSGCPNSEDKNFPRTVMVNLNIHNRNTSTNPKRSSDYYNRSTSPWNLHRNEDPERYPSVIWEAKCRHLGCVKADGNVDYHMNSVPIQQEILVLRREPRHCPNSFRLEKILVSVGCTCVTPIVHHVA
Test: SPR (Biacore 3000), antibody captured by anti-Fc, antigen in solution;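 note: purified recombinant IL-17 antigens flowed over captured antibodies in HBS-EP buffer, global Langmuir one-to-one fit of association and dissociation phases, KD derived from koff over kon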

BINDER: IL17-h5C5.14 (antibody, V domains shown, IgG; constant regions not specified; also called h5C5.14 (VH.1-Vk.3a)) VH: EVQLVQSGAEVKKPGASVKVSCKASGYTFTDYEFHWVRQAPGQGLEWMGVIHPGNGGTAYNQNFRDRVTITADKSTSTAYMELSSLRSEDTAVYYCARFLTYEGYFDYWGQGTLVTVSS VL: EIVMTQSPATLSVSPGERATLSCKASQSVSIDVGWFQQKPGQSPRLLIYHASNRYTGVPARFSGSGSGTDFTLTISSLQPEDFAVYFCQQDYSSPYTFGQGTKLEIKR
UNIT TEXT: s⁻¹
koff: 0.000229
--
BINDER: IL17-h10F7.6 (antibody, V domains shown, IgG; constant regions not specified; also called h10F7.6 (VH.1a-Vk.1a)) VH: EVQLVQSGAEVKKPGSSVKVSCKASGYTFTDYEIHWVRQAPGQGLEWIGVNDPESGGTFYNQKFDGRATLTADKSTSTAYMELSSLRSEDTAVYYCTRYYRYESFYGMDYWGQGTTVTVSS VL: DIQLTQSPSSLSASVGDRVTITCSASSSISYIYWFQQKPGKSPKRWIYATFELASGVPSRFSGSGSGTDYTLTISSLQPEDFATYYCHQRSSYPWTFGQGTKLEIKR
UNIT TEXT: s⁻¹
koff: 0.000154
